The reported measurements were obtained from patent US20130053430A1.

# Test details: Body and organ weights of huCETP transgenic mice (Example 5)
# Type: in vivo
# Details: 50 mg/kg i.p. twice per week, Week 4
e = 2'-O-(2-methoxyethyl) (MOE); d = 2'-deoxy (DNA)
Listed substances paired with reported Body weights
Observation type: Body weights (grams)

>>> value_measured("ISIS 349515: 5-10-5 MOE gapmer AACTTCCACCACGCTGGAGG (sugars from the 5' end e5 d10 e5, backbone and methylation of C not given here)")
28
>>> value_measured("ISIS 349512: 5-10-5 MOE gapmer TTGCCTTCTGCTACAAGCCC (sugars from the 5' end e5 d10 e5, backbone and methylation of C not given here)")
26
>>> value_measured("ISIS 349511: 5-10-5 MOE gapmer CCCGACCTCCTTGGAGACTT (sugars from the 5' end e5 d10 e5, backbone and methylation of C not given here)")
25
>>> value_measured("ISIS 349517: 5-10-5 MOE gapmer CAGCACTTTAATGCCAGTGG (sugars from the 5' end e5 d10 e5, backbone and methylation of C not given here)")
28
